target or test system: full length recombinant Pim-2 (Homo sapiens (Human), UniProt Q9P1W9)
Sequence (Q9P1W9 whole entry): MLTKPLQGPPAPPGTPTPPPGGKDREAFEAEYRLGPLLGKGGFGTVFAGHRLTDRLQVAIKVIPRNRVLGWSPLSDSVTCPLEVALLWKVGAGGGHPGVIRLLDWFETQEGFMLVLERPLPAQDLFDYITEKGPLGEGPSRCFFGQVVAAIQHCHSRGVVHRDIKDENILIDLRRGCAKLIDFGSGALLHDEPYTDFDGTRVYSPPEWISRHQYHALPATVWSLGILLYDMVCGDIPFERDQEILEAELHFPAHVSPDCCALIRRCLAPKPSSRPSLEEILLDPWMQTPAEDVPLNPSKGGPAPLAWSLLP
method description: Pim enzyme assay (HTRF, phosphorylation of biotinylated-BAD (S112) peptide), Pim-2
Type: biochemical
condition label: Pim-2 enzyme assay; read-out: Pim2_IC50
Output Y for records whose IC50 is lower than 10 nM, N for records at or above 10 nM.

molecule	category
c1cc2[nH]cc(-c3cncc(C4CC4)n3)c2cc1-c1nnc(C2CC2)o1 [Example 44]	N
Nc1nnc(-c2ccc3[nH]cc(-c4ccccc4F)c3n2)o1 [Example 9]	N
CC(C)c1ccnc(-c2c[nH]c3ccc(-c4nnc(NCC#N)o4)cc23)n1 [Example 45]	Y
CC(Nc1nnc(-c2ccc3[nH]cc(-c4ccccn4)c3c2)o1)c1ccccc1 (stereo not drawn) [Example 267]	N
CNc1nnc(-c2ccc3[nH]cc(-c4nccc(N5CCOCC5)n4)c3c2)s1 [Example 134]	N

query: Bench note: check whether Nc1nnc(-c2ccc3[nH]cc(-c4cncc(N5CCOCC5)n4)c3c2)o1 [Example 90] shows IC50 below 10 nM
result: N

query: Try this molecule next: Cc1cn(-c2cccc(-c3c[nH]c4ccc(-c5nnc(N)s5)cc34)n2)cn1 [Example 155]
result: Y

query: What do you have for Nc1nnc(-c2ccc3[nH]cc(-c4cccc(F)n4)c3c2)s1 [Example 209] ?
result: N

----------
target or test system: full length recombinant Pim-1 (Homo sapiens (Human))
Sequence (P11309 whole entry): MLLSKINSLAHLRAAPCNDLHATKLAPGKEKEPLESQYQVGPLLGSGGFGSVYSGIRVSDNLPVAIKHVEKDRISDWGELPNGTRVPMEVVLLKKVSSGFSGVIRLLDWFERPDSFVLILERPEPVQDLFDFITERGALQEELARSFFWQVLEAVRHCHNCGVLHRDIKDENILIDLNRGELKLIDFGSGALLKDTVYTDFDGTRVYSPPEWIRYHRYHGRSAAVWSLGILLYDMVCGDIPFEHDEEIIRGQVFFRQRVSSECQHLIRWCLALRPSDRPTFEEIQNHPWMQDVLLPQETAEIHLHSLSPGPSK
method description: Pim enzyme assay (HTRF, phosphorylation of biotinylated-BAD (S112) peptide), Pim-1
Assay type: biochemical
condition label: Pim-1 enzyme assay; read-out: Pim_1_IC50
measure name: pIC50
pIC50 (log units): -log10 of the concentration in mol/L.

Some entries whose results are on file:
compound	pIC50
CC(C)(C)Nc1nnc(-c2ccc3[nH]cc(-c4nccc(C(N)=O)n4)c3c2)o1 [Example 273]	7.93
Nc1nnc(-c2ccc3[nH]cc(-c4cccc(OC5CCC5)n4)c3c2)s1 [Example 161]	7.96

query: Item c1cc(C2CC2)nc(-c2c[nH]c3ccc(-c4nnc(NC5COC5)o4)cc23)n1 [Example 256] has what recorded pIC50?
result: 8.11

----------
We begin with a simple list: items and their reported log10 of IC50.
target or test system: full length recombinant Pim-1 (Homo sapiens (Human))
method description: Pim enzyme assay (HTRF, phosphorylation of biotinylated-BAD (S112) peptide), Pim-1
Format: biochemical
condition label: Pim-1 enzyme assay; read-out: Pim_1_IC50
Note the log scale: values are log10 of IC50 expressed in nM.

item smiles	target or test system	numeric value
FC(F)(F)CNc1nnc(-c2ccc3[nH]cc(-c4nccc(C5CC5)n4)c3c2)o1	full length recombinant Pim-1 (Homo sapiens (Human))	-0.39
CC(C)Nc1nc(-c2ccc3[nH]cc(-c4cncc(OC(C)C)n4)c3c2)no1	full length recombinant Pim-1 (Homo sapiens (Human))	1.66
Nc1nnc(-c2ccc3[nH]cc(-c4cncc(NCC5CC5)n4)c3c2)o1	full length recombinant Pim-1 (Homo sapiens (Human))	0.06
Nc1nnc(-c2ccc3[nH]cc(-c4nccc(C(F)(F)F)n4)c3c2)o1	full length recombinant Pim-1 (Homo sapiens (Human))	1.83

Now examine the next entry.
query: Value lookup for log10 of IC50; key = "Nc1nnc(-c2ccc3[nH]cc(-c4cncc(Cl)n4)c3c2)o1"
result: 2.20
